ASSAY_ENDPOINT: melting point

>>> observed("CC(C)N1CCN(c2ccc3nc(-c4ccc(F)c(F)c4)c(-c4ccnnc4)n3n2)CC1")
"192 to 194 °C"

Give the reported value of melting point for this record: `CC(C)(O)CCN1CCN(c2ccc3nc(-c4ccc(F)cc4)c(-c4ccnnc4)n3n2)CC1`
148 to 150 °C

Give the reported value of melting point for this record: `C[C@@H]1CN(c2ccc3nc(-c4ccc(F)cc4)c(-c4ccnnc4)n3n2)C[C@H](C)N1`
197 to 199 °C

Give the reported value of melting point for this record: `FCCN1CCN(c2ccc3nc(-c4ccccc4)c(-c4ccnnc4)n3n2)CC1`
156 to 158 °C

Give the reported value of melting point for this record: `CC(C)N1C[C@@H]2C[C@H]1CN2c1ccc2nc(-c3ccc(F)cc3)c(-c3ccnnc3)n2n1`
201 to 203 °C

Give the reported value of melting point for this record: `Cc1cc(C)cc(-c2nc3ccc(N4CCN(C(C)C)CC4)nn3c2-c2ccnnc2)c1`
183 to 184 °C
